Where do the numbers come from? From patent US20170305981A1.

# Tested on: lipoprotein lipase (LpL)
# assay-notes: Lipoprotein lipase (LpL) in vitro activity assay with fluorogenic TG substrate EnzChek
# Assay type: biochemical
# run-conditions: knockout substitutions in AV199-232 domains
# Method: FIG. 3A-C. Lipoprotein lipase (LpL) activity assay using a fluorogenic TG analog, EnzChek (Invitrogen). The enzyme reaction mix was composed of increasing concentrations of LpL in 100 μl Tris buffered saline (TBS), 1% BSA, pH 7.8, 0.015% Zwittergent 3-14 and 1 μM EnzChek substrate. Reaction was monitored by fluorescence (λex=482 nm, λem=515 nm) and the relative fluorescence units (RFU) against time plotted (A). […]
result-type: LpL stimulating activity of domain substitution peptides relative to AV199-232

Dom2KO: AV199-232 with domain 2 substitutions K13Q/K17Q (ARLSRCVQVLSRQLTLQAKALHARIQQNLDQLRE) = significant reduction
Dom1KO: AV199-232 with domain 1 substitutions R12Q/D30S (ARLSRCVQVLSQKLTLKAKALHARIQQNLSQLRE) = significant reduction
